Test system: COLO 205 colon
Assay: NCI-60 one-dose screen, 48 h (100 = growth as untreated, 0 = no growth, -100 = all killed)
Settings: 10 µM unless noted
Description: Cells are grown in 96 well plates and exposed to the test compound for 48 hours. Compounds are tested at a single concentration, which is 10^-5 M for most compounds. The reported endpoint is percent growth (GI% or GIPRCNT), where numbers from 0 - 100% represent growth inhibition, and numbers from -100% - 0 represent cell death. For example, a value of 40 represents 60% growth inhibition. A value of 0 means no net growth occurred over the course of the experiment. […]
Compounds without any hit were thinned out: in the full panel of roughly 83,000, 20% have a hit.
Threshold check on growth: at or above 70% gives 1.0, strictly below gives 0.0.

>>> print(df.to_string())
                                   compound  label_class
0  O=C(Cn1cc(-c2ccccc2)nn1)Nc1nc(-c2ccc(Cl)cc2)cs1          1.0
1  Oc1cccc2ccc(-c3nnc(SCc4ccc(O)c5ncccc45)o3)nc12          0.0
2  O=C(CCn1c[n+](CC(=O)c2ccc(F)cc2)c2ccccc21)Nc1cccc2cccnc12          0.0
3  CCO/C=N/C1=C(C#N)C(c2ccc(Cl)cc2)c2sc3c(CC)cccc3c2O1 (stereo unspecified)          0.0
4  COc1ccc(COc2ccc(/C=C3\C(=O)Nc4ccccc43)cc2OC)cc1          1.0
5  COc1cc2nc(Cl)nc(Nc3cccc(C4=Nc5c(N)nc(N)nc5NC(c5ccc(Br)cc5)C4)c3)c2cc1OC (stereo unspecified)          0.0

The measured values listed here are drawn from PubChem BioAssay (NCI).
